Examples of compounds with documented pIC50 follow.
tested on: SDMA in human colon cancer cell line HCT116; experiment: Cell symmetric dimethylarginine (SDMA) test, In-cell Western, HCT116 (MTAP wild-type); format: cell-based; settings: Homo sapiens, HCT-116, 96 h, read-out: Cell 96 h SDMA inhibition (HCT116-MTAP+/+)
pIC50: −log10 of the molar value.

Answered examples (5):
Cn1cc2c(n1)c(=O)n(-c1cccc3[nH]nc(Br)c13)c1cc(Cl)ccc21 [Compound B332] ... < 5.00
COc1cc2c3cn(C)nc3c(=O)n(-c3cccnc3)c2cc1Cl [Compound B171] ... < 5.52
CN1CCN(c2nccc(Cn3cc4c(n3)c(=O)n(-c3cccc5[nH]ncc35)c3cc(Cl)c(F)cc43)n2)CC1 [Compound B333] ... < 5.00
Cn1cc2c(n1)c(=O)n(-c1cccc3[nH]ncc13)c1cc(C(F)(F)F)c(C#N)cc21 [Compound B391] ... < 5.00
O=c1c2n[nH]cc2c2ccc(C(F)(F)F)nc2n1-c1cccc2[nH]ncc12 [Compound B239] ... < 5.00

Please look up its pIC50: Cn1cnc2c(=O)n(-c3cccnc3C3CC3)c3cc(Cl)c(F)cc3c21 [Compound B336]
< 5.00

pIC50 lookup needed for Cn1nc2c(=O)n(-c3cccnc3)c3cc(Cl)ccc3c2c1C(F)F [Compound B27] , thanks.
< 5.52

Please report the recorded pIC50 for Cn1cc2c(n1)c(=O)n(-c1cccnc1C1CC1)c1cc(Cl)c(F)cc21 [Compound B340] .
< 5.00

# pIC50 lookup, item O=c1c2n[nH]cc2c2cc(F)c(Cl)cc2n1-c1cccnc1C1CC1 [Compound B425]
< 5.00

* * *

System: SDMA in human colon cancer cell line HCT116
Assay: Cell symmetric dimethylarginine (SDMA) test, In-cell Western, HCT116 (MTAP wild-type)
Format: cell-based
Conditions: Homo sapiens, HCT-116, 96 h, read-out: Cell 96 h SDMA inhibition (HCT116-MTAP+/+)
Source text: MAT2A catalyzes the reaction of L-methionine and ATP to generate SAM, inorganic phosphonic acid, and inorganic diphosphonic acid. SAM is an important methyl donor, and is a substrate of arginine methyltransferase 5 (PRMT5). PRMT5 catalyzes SDMA modification of multiple proteins within a cell. The intracellular SDMA modification level was detected by ICW (In-cell Western), and the inhibition of the test compound on the enzymatic activity of intracellular MAT2A was indirectly reflected. […]
QUANTITY_NAME: IC50 (nM)
Quick note: give the figure in nM, leave out the unit.

Give the reported IC50 for CNC(=O)CC1N=c2c(c3ccc(Cl)cc3n(-c3cccnc3)c2=O)=N1 (stereo not shown) (system: SDMA in human colon cancer cell line HCT116).
1260

* * *

In this section, each of the compounds is paired with its reported half-life at 1 μM.
assay: Stability test in liver microsomes, mouse; format: in vitro ADME, CD-1 mice; conditions: CD-1; mouse liver microsomes 0.5 mg/mL, 1.0 μM substrate, up to 60 min; read-out: Metabolic half-life in mouse liver microsome (T½, min)

Worked examples follow.
Cn1cc2c(n1)c(=O)n(-c1cccc3[nH]ncc13)c1cc(Cl)ccc21 ... > 145 min
Cn1cc2c(n1)c(=O)n(-c1cccnc1)c1cc(Cl)ccc21 ... > 145 min

Now look at this entry.
Recorded half-life at 1 μM for Cn1cc2c(n1)c(=O)n(-c1cccc3[nH]ncc13)c1nc(C(F)(F)F)ccc21 , please?
> 145 min

* * *

Listed below: pIC50 values for each entry.
test system: SDMA in HCT116-MTAP-knockout cell line; experiment: Cell symmetric dimethylarginine (SDMA) test, In-cell Western, HCT116-MTAP-knockout; assay type: cell-based; settings: Homo sapiens, 96 h, IC50 score class, read-out: Cell 96 h SDMA Inhibition (HCT116-MTAP−/−) (score)
pIC50: −log10 of the molar value.

Examples with their reported pIC50 follow.
CCn1cc2c(n1)c(=O)n(-c1cccnc1C)c1cc(Cl)ccc21 [Compound B30] ... > 6.70
Cn1cc2c(n1)c(=O)n(-c1cccnc1)c1cc(Cl)cc(F)c21 [Compound B172] ... 6.00 to 6.70
Cn1cc2c(n1)c(=O)n(-c1cccnc1C1CC1)c1nc(C(F)(F)F)ccc21 [Compound B183] ... > 6.70
Cc1ncccc1-n1c(=O)c2nn(C)cc2c2ccc(Cl)cc21 [Compound B233] ... > 6.70
COCCn1cc2c(n1)c(=O)n(-c1cccnc1)c1cc(Cl)ccc21 [Compound B45] ... > 6.70
Cc1ncccc1-n1c(=O)c2nn(C)c(C)c2c2ccc(C(F)(F)F)nc21 [Compound B189] ... > 6.70
COc1ccc(Cn2cc3c(n2)c(=O)n(-c2cccnc2)c2cc(Cl)ccc32)cc1 [Compound B28] ... > 6.70
COc1cc2c3cn(C)nc3c(=O)n(-c3cccnc3)c2cc1Cl [Compound B171] ... 6.00 to 6.70
[2H]C([2H])([2H])n1cc2c(n1)c(=O)n(-c1cccc3[nH]ncc13)c1nc(C(F)(F)F)ccc21 [Compound B256] ... > 6.70
Cn1cc2c(n1)c(=O)n(-c1cccnc1)c1cc(Cl)ccc21 [Compound B12] ... 6.00 to 6.70

Please look at the following molecule next.
Recorded pIC50 of Cn1cc2c(n1)c(=O)n(-c1cccc(F)c1)c1nc(C(F)(F)F)ccc21 [Compound B193] , please.
6.00 to 6.70

* * *

target: MAT2A recombinant protein (Homo sapiens); test: MAT2A inhibitory activity (malachite green colorimetric enzyme assay); format: biochemical; conditions: read-out: MAT2A Inhibition
Sequence (P31153 whole entry): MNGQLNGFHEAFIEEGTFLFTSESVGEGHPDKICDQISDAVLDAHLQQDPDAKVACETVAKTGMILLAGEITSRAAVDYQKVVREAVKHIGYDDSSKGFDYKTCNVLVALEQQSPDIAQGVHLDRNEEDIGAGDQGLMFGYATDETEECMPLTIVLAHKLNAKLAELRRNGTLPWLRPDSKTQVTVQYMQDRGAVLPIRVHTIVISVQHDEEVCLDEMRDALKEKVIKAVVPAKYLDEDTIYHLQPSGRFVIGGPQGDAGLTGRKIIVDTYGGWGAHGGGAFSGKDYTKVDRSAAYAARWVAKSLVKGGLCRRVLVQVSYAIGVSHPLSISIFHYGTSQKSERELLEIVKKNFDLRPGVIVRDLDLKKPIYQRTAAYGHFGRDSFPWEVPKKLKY
# note: boundary value 40 nM maps to class 0; IC50 below it maps to class 1

Example cases with answers are listed next.
CCn1cc2c(n1)c(=O)n(-c1ccc(OC)cc1)c1cc(Cl)ccc21 ... class 0
CCn1cc2c(n1)c(=O)n(-c1cccnc1C)c1cc(Cl)ccc21 ... class 1
Cn1cc2c(n1)c(=O)n(-c1cccc(O)c1)c1cc(C(F)(F)F)ccc21 ... class 1
Cn1cc2c(n1)c(=O)n(-c1cnccn1)c1nc(C(F)(F)F)ccc21 ... class 0
Cc1ncccc1-n1c(=O)c2nn(C)cc2c2ccc(OC(F)(F)F)cc21 ... class 0

Quick check: does Cn1cc2c(n1)c(=O)n(-c1ccn3ccnc3c1)c1cc(Cl)ccc21 have IC50 under 40 nM?
class 0

Does the reported IC50 of the following compound sit strictly below 40 nM? Cc1ncccc1-n1c(=O)c2nn(C)cc2c2ccc(C3CC3)nc21
class 0

Here's an entry: O=c1c2nn(C(F)F)cc2c2ccc(C(F)(F)F)nc2n1-c1cccc2[nH]ncc12 . Is its IC50 below 40 nM?
class 1

Please state whether IC50 is below 40 nM for Cc1ncccc1-n1c(=O)c2nn(C3CC3)cc2c2ccc(C(F)(F)F)nc21
class 1

Given the entry Cn1cc2c(n1)c(=O)n(-c1cccnc1)c1cc(Cl)c(F)cc21 , would its reported IC50 be below 40 nM?
class 1

Is 40 nM strictly greater than the compound's reported IC50? compound: Cc1ncccc1-n1c(=O)c2nn(C)cc2c2ccc(Cl)cc21 [Compound B233]
class 1

* * *

molecular target: MAT2A recombinant protein (Homo sapiens); test: MAT2A inhibitory activity (malachite green colorimetric enzyme assay); format: biochemical; conditions: IC50 score class; read-out: MAT2A Inhibition (score)
QUANTITY_NAME: IC50

Cc1ncccc1-n1c(=O)c2[nH]ncc2c2ccc(Cl)cc21 ... < 100 nM
Cn1cc2c(n1)c(=O)n([C@H]1CC[C@H](O)CC1)c1cc(Cl)ccc21 ... 100 to 1000 nM
O=c1c2[nH]ncc2c2ccc(Cl)cc2n1-c1cccnc1 ... < 100 nM
Cn1cc2c(n1)c(=O)n(-c1ccc(OC(F)F)cc1)c1cc(Cl)ccc21 ... 100 to 1000 nM
Cn1cc2c(n1)c(=O)n(-c1cnccn1)c1nc(C(F)(F)F)ccc21 ... < 100 nM
Cn1cc2c(n1)c(=O)n(-c1ccc3ncoc3c1)c1cc(Cl)ccc21 ... 100 to 1000 nM
CCn1nc2c(=O)n(-c3cccnc3)c3cc(Cl)ccc3c2c1C(F)(F)F ... 100 to 1000 nM
CCn1cc2c(n1)c(=O)n(-c1cncc(F)c1)c1cc(Cl)ccc21 ... < 100 nM
Cn1cc2c(n1)c(=O)n(-c1cccc(NS(C)(=O)=O)c1)c1nc(C(F)(F)F)ccc21 ... < 100 nM
Cn1cc2c(n1)c(=O)n(-c1ccccc1)c1nc(C(F)(F)F)ccc21 ... < 100 nM

May I ask what IC50 has been recorded for Cc1ncccc1-n1c(=O)c2nn(CC3CC3)cc2c2ccc(C(F)(F)F)nc21 ?
< 100 nM

* * *

system: SDMA in human colon cancer cell line HCT116; assay: Cell symmetric dimethylarginine (SDMA) test, In-cell Western, HCT116 (MTAP wild-type); format: cell-based; conditions: Homo sapiens, HCT-116, 96 h, IC50 score class, read-out: Cell 96 h SDMA Inhibition (HCT116-MTAP+/+) (score)
pIC50: −log10 of the molar value.
Some compounds, each annotated with its measured pIC50.

Known results for compounds:
Cn1cnc2c(=O)n(-c3cccnc3C(F)(F)F)c3cc(Cl)c(F)cc3c21 [Compound B351] ... < 5.52
Cc1ncccc1-n1c(=O)c2[nH]ncc2c2ccc(C3CC3)nc21 [Compound B95] ... < 5.52
Cn1cc2c(n1)c(=O)n(-c1cccc(C(N)=O)c1)c1nc(C(F)(F)F)ccc21 [Compound B234] ... < 5.52
Cn1cc2c(n1)c(=O)n(-c1cccc(O)c1)c1nc(C(F)(F)F)ccc21 [Compound B148] ... 5.52 to 6.00
Cc1c2c(nn1C)c(=O)n(-c1cccnc1)c1cc(Cl)ccc21 [Compound B16] ... 6.00 to 6.70

Reported pIC50, compound Cn1cc2c(n1)c(=O)n(-c1cccnc1Cl)c1nc(C(F)(F)F)ccc21 [Compound B196] : ____
6.00 to 6.70

Would you kindly share the measured pIC50 for CCn1cc2c(n1)c(=O)n(-c1cccnc1C(F)(F)F)c1cc(Cl)ccc21 [Compound B32] ?
5.52 to 6.00

Data request, read-out pIC50, for O=c1c2nn(Cc3cccnc3)cc2c2ccc(Cl)cc2n1-c1cccnc1 [Compound B47]
< 5.52

Query: pIC50; subject: Cn1cc2c(n1)c(=O)n(-c1ccc(F)c(O)c1)c1nc(C(F)(F)F)ccc21 [Compound B228]
< 5.52

Which pIC50 value is on record for Cn1cc2c(n1)c(=O)n(-c1cccnc1)c1cc(C3CC3)ccc21 [Compound B70] ?
5.52 to 6.00

pIC50 for Cc1c2c(nn1C)c(=O)n(-c1cccnc1)c1nc(C(F)(F)F)ccc21 [Compound B198] ?
6.00 to 6.70

Form field: reported pIC50 of Cc1ncccc1-n1c(=O)c2nn(C3CC3)cc2c2ccc(Cl)cc21 [Compound B226]
6.00 to 6.70

Dear colleague, I am looking for the recorded pIC50 of the following compound: Cn1cc2c(n1)c(=O)n(-c1cccc3[nH]ncc13)c1nc(C(F)(F)F)ccc21 [Compound B181]
6.00 to 6.70

Sample Cn1cnc2c(=O)n(-c3cccnc3C3CC3)c3cc(Cl)c(F)cc3c21 [Compound B336] — what was its pIC50?
< 5.52

Consider the compound Cn1cc2c(n1)c(=O)n(-c1cccc3[nH]nc(Br)c13)c1cc(Cl)c(F)cc21 [Compound B413] and give its measured pIC50.
< 5.52

What does the data say about its pIC50? Entry: Cn1cc2c(n1)c(=O)n(-c1cccc3[nH]ncc13)c1cc(Cl)c(F)cc21 [Compound B257]
5.52 to 6.00
